Cited source for all entries: ChEMBL document CHEMBL2086315

system: COLO 205; assay: Growth inhibition of human COLO205 cells after 2 days by XTT assay; assay type: functional, cell-based; details: COLO 205, 48 h
endpoint_label: IC50

compound: CC(=O)O[C@H]1C[C@H]2[C@@](C)(CC[C@H]3C(C)(C)CCC[C@]23C)[C@@H]2C[C@H](O)C(C(C)=O)=C[C@@]12C [FLABELLIFERIN B]
value: 20 µM

Shifting focus to the compound that follows.
Recorded result, C=C1[C@@H](OC(C)=O)C[C@H]2[C@@](C)(CC[C@H]3C(C)(C)CCC[C@]23C)[C@@H]1C[C@H](O)[C@H](CCOC(C)=O)C(C)=O [FLABELLIFERIN A] , IC50: 20 µM
